max response for assorted compounds
- assay_text: qHTS Assay for Lipid Storage Modulators (AID 1519)
- study_conditions: Drosophila S3 cells, BODIPY lipid droplet/cell ratio, laser cytometry; measured here: cell count channel max response; cells loaded with oleic acid
Records with an inconclusive call do not appear.
Number in %, nothing else.

smiles_text	reading
O=c1c(-c2ccc(F)cc2)nc2cnc(Nc3ccccc3)nc2n1C[C@H]1CCCO1	-27.1
FC(F)(F)c1ccccc1-c1nc(NC2CCNCC2)c2ccccc2n1	19.6

Please look up its max response: `O=c1c(-c2cc(F)cc(F)c2)nc2cncnc2n1-c1ccccc1`
22.2

`COc1ccc(-c2nc3cnc(N4CCOCC4)nc3n(C[C@H]3CCCO3)c2=O)cc1` ?
4.58

`Cc1noc(C)c1C(=O)N1CCC2(CCN(Cc3ccc(C#N)cc3)CC2)CC1` ?
9.89

`O=C(c1cnccn1)N1CCC[C@@]2(CCN(Cc3nccs3)C2)C1` ?
14.2

`Cn1cccc1C(=O)N1CCC[C@@]2(CCN(c3ccncc3)C2)C1` ?
-3.32

`CN1CCN(c2ncc3nc(-c4cc(F)cc(F)c4)c(=O)n(C4CC4)c3n2)CC1` ?
12.3

`Cc1noc(C)c1-c1nccc(-n2ccnc2)n1` ?
12.5

`O=C(c1ccco1)N1CCC2(CC1)CN(C(c1ccccc1)c1ccccc1)C2` ?
5.15

====

- assay_text: AP1 Signaling Pathway (AID 357);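 also: ME-180 reporter cells stimulated with EGF at its EC50 level; % is scaled to controls: 0 for no effect and ±100 for the full control effect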
- study_conditions: ME-180 AP-1-bla reporter, EGF-induced, beta-lactamase ratio, 5 h; at 7.69 µM (top of the series) unless noted
Results filed as inconclusive are left out.
measurement_kind: activity change, negative = inhibition (%)
Number in %, nothing else.

Please review the entries below; each comes with its answer.
smiles_text	reading
COCC(=O)N1CCC2(CC1)CCN(C(=O)Nc1cccc(F)c1)CC2	5.9
Cc1cnc(CNc2cc(-c3cccc(NS(C)(=O)=O)c3)ncn2)cn1	20.7
Cc1cccc(CNc2ncnc3ccc(-c4cccc(C#N)c4)cc23)c1	-19.4
COCCn1c(=O)c(CCc2ccccc2)nc2cnc(Nc3cccc(OC)c3)nc21	13.2
COc1ccccc1-c1cncnc1-n1ccnc1	-7.86

Please look up its activity change, negative = inhibition: `O=C(Nc1ccccc1)N1CCC2(CC1)CCN(C(=O)c1ccncc1)CC2`
-8.86

`O=C(c1cccc(F)c1)N1CCC2(CC1)CN(c1cccc(-c3ccccc3)c1)C2` ?
-6.1

`c1nc(N2CCNCC2)c2cc(-c3ccoc3)ccc2n1` ?
-10.9

`CC(C)NC(=O)N1CCCC2(CCN(C(=O)c3ccncc3)CC2)C1` ?
-8.19

`c1ccc(-c2cccc(N3CC[C@@]4(CCCNC4)C3)c2)cc1` ?
1.23

====

- assay_text: Stat Signaling Pathway (AID 446);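 also: ME-180 cervical cancer cells given 40 pM IL-6 alongside compound; SIE-controlled beta-lactamase reporter measured as 460/530 nm FRET emission ratio; % is scaled to controls: 0 for no effect and ±100 for the full control effect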
- study_conditions: ME-180 (cervical carcinoma) SIE beta-lactamase reporter, IL-6 stimulated, 5 h; at 7.69 µM (top of the series) unless noted
- Protocol: NCGC Assay Overview: The IL-6/STAT signaling pathway was assayed in ME-180 cervical carcinoma cells by a beta-lactamase reporter gene controlled by a STAT Inducible Element (SIE). This reporter is induced by IL-6 at 40 pM AC50 and inhibited by the pan JAK inhibitor, 2-(1,1-Dimethylethyl)-9-fluoro-3,6-dihydro-7H-benz[h]-imidaz[4,5-f]isoquinolin-7-one, at approximately 10 nM AC50. Plated cells were incubated overnight and on the following day, stimulated with 40 pM IL-6 for 5 hrs. […]
Inconclusive results are not listed.
measurement_kind: activity, negative = inhibition (%)
Number in %, nothing else.

smiles_text	activity, negative = inhibition (%)
COc1ccc(-n2c(=O)cnc3cnc(Oc4ccccc4)nc32)cc1	-13.1
Cc1noc(C)c1C(=O)N1CCC2(CCN(Cc3cc(C(F)(F)F)cc(C(F)(F)F)c3)CC2)CC1	-0.996
N#Cc1cccc(NC(=O)N2CC[C@@]3(CCCN(C(=O)c4ccncc4)C3)C2)c1	4.09
Cn1cccc1C(=O)N1CCC2(CC1)CCN(c1ccc(-c3ccccc3)cc1)CC2	-10.4

Please look up its activity, negative = inhibition: `COc1cccc(Nc2ncc3nc(-c4ccc(F)cc4)c(=O)n(C)c3n2)c1`
-6.63
